test: cytotoxicity test on HeLa human cervix carcinoma line
Assay type: cell-based
setup conditions: HeLa human cervix carcinoma cells, cytotoxic
reported metric: CC50 (ng/mL)
Response body: numeric value in ng/mL, unit text excluded.

Q) Would you mind telling me what CC50 value was observed for CC(/C=C/C=C(\C)[C@H](O)[C@@H](C)C1C[C@H](O)C2(C)O[C@@H]2/C=C/[C@@H](C)[C@H](O)C[C@H](CC(=O)O)C/C=C/C(=O)O1)=C\c1coc(C)n1 (stereo partly drawn) ?
A) 90

Q) If you can, please state the reported CC50 value of COC(=O)C[C@@H]1C/C=C/C(=O)OC([C@H](C)[C@@H](O)/C(C)=C/C=C/C(C)=C/c2coc(C)n2)C[C@H](O)C2(C)O[C@@H]2/C=C/[C@@H](C)[C@H](O)C1 (stereo partly drawn) .
A) 0.28
